All values here come from the supplement of paper PMC8728848.

TEST SYSTEM: Fuc(a1-2)Gal(b1-4)GlcNAc
METHOD DESCRIPTION: glycan array binding signal (z-score within array); higher = stronger binding
CONDITION CONTEXT: glycan notation: IUPAC condensed, linker removed
The entries come from a sample that favours the strongest signals as a whole.
METRIC NAME: glycan array binding signal (z-score)
Answer with a number only.

Data request: Give its glycan array binding signal (z-score) value. Item: Tachylectin-2 (Tachypleus tridentatus), TAL2_TACTR (protein) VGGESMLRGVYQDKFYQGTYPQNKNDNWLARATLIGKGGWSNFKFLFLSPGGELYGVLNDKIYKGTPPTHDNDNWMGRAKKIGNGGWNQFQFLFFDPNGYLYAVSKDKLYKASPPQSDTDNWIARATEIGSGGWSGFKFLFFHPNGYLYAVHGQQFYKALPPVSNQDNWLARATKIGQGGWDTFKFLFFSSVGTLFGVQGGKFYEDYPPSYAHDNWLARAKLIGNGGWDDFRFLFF
Data returned: -0.309

Data request: Give its glycan array binding signal (z-score) value. Item: Mannose Binding Protein (Lactobacillus plantarum) (protein) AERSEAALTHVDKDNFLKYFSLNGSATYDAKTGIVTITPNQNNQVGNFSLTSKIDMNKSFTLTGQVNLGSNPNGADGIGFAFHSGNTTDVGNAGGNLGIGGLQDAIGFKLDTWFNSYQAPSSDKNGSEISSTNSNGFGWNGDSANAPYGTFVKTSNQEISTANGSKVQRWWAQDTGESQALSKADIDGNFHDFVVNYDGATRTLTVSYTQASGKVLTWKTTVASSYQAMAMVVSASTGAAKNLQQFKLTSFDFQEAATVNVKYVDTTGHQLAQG
Data returned: -0.102

Data request: Give its glycan array binding signal (z-score) value. Item: RegIIIalpha (Mus musculus), O09037 (protein) MLPHLVLNSISWMLLSCLLFVFQVQGEDFQKEVPSPRTSCPMGYKAYRSHCYALVMTPKSWFQADLVCQKRPSGHLVSILSGGEASFVSSLVNGRVDNYQDIWIGLHDPTMGQQPNGGGWEWSNSDVLNYLNWDGDPSSTVNRGHCGSLTASSGFLKWGDYYCDGTLPFVCKFKQ
Data returned: -0.094

Data request: Give its glycan array binding signal (z-score) value. Item: Dectin-1 CTLD (Mus musculus), Q6QLQ4 (protein) MKYHSHIENLDEDGYTQLDFSTQDIHKRPRGSEKGSRAPSSPWRPIAVGLGILCFVVVVVAAVLGALAFWRHNSGRNPEEKDNFLSRNKENHKPTESSLDEKVAPSKASQTTGGFSQSCLPNWIMHGKSCYLFSFSGNSWYGSKRHCSQLGAHLLKIDNSKEFEFIESQTSSHRINAFWIGLSRNQSEGPWFWEDGSAFFPNSFQVRNTVPQESLLHNCVWIHGSEVYNQICNTSSYSICEKEL
Data returned: -0.083

Data request: Give its glycan array binding signal (z-score) value. Item: PpFlo3 (Pichia pastoris) (protein) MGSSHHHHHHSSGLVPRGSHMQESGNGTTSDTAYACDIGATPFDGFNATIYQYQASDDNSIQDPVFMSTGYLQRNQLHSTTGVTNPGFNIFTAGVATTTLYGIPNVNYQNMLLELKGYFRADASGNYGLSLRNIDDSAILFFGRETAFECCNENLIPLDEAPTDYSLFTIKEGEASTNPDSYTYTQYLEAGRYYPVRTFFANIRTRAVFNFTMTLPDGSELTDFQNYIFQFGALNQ
Data returned: -0.242
